// provenance: paper PMC8856561

Each entry below carries its recorded EC50.
# Tested on: Mtb in murine macrophages
# protocol_description: Mtb replication in macrophages (intramacrophage EC50)
# Format: cell-based
# condition_info: Mycobacterium tuberculosis, Macrophage

molecule: Cc1nonc1CC(=O)N1CCC(c2nc(-c3ccc(F)cc3)no2)CC1 [mCIS635]
qualifier_symbol: =
EC50, nM: 270
//
molecule: Cn1ncnc1CC(=O)N1CCC(c2nc(-c3ccc(Cl)c(Cl)c3)no2)CC1 [mCLB073]
qualifier_symbol: =
EC50, nM: 1200
//
molecule: Cc1nonc1CC(=O)N1CCC(n2nnc(-c3ccc(F)cc3)n2)CC1 [V-59]
qualifier_symbol: =
EC50, nM: 300
//
molecule: Cn1ncnc1CC(=O)N1CC2CC1CC2c1nc(-c2ccc(Cl)c(F)c2)no1 (stereo not shown) [mCLF178]
qualifier_symbol: >
EC50, nM: 20000
